- METHOD SUMMARY: Quantification of 1,8-cineole metabolites in human milk (SAFE, GC-MS, internal standard and matrix calibration) after oral intake of 100 mg 1,8-cineole
- Format: in vivo
- CONDITIONS USED: sample E-2 (odour yes); oral 100 mg 1,8-cineole; single determination; values given with (<x) are approximations
// reported Absolute concentration in human milk per item

[
  {
    "COMPOUND": "CC12CCC(CC1)C(C)(CO)O2 (stereo not shown) [9-hydroxy-1,8-cineole]",
    "Absolute concentration in human milk [µg/kg]": 16.95
  },
  {
    "COMPOUND": "CC12CCC(C(O)C1)C(C)(C)O2 (stereo not drawn) [a3-hydroxy-1,8-cineole, α3-Hydroxy-1,8-cineole]",
    "Absolute concentration in human milk [µg/kg]": 0.96
  },
  {
    "COMPOUND": "CC12CCC(O)(CC1)C(C)(C)O2 [4-hydroxy-1,8-cineole]",
    "Absolute concentration in human milk [µg/kg]": 8.92
  },
  {
    "COMPOUND": "CC1(C)OC2(CO)CCC1CC2 [7-hydroxy-1,8-cineole]",
    "Absolute concentration in human milk [µg/kg]": 5.19
  }
]

// data source = paper PMC3901259
